Origin of measurements: the DeepSol protein solubility set

experiment: soluble on expression in E. coli; label from the status in PepcDB or PDB records
property: soluble on expression in E. coli

Solved cases below.
{"columns": ["residue string", "soluble on expression in E. coli"],
 "data": [
  ["AARRALIVLAHSEKTSFNYAMKEAAVEALKKRGWEVLESDLYAMNFNPIISRNDITGELKDSKNFQYPSESSLAYKEGRLSPDIVAEHKKLEAADLVIFQFPLQWFGVPAILKGWFERVLVAGFAYTYAAMYDNGPFQNKKTLLSITTGGSGSMYSLQGVHGDMNVILWPIQSGILRFCGFQVLEPQLVYSIGHTPPDARMQILEGWKKRLETVWEETPLYFAPSSLFDLNFQAGFLLMKEVQEEQKKNKFGLSVGHHLGKSIPADNQIKARK", "soluble"],
  ["MGSDKIHHHHHHMFSLFETFIVVYETKSFTLAGKYLFISQPTVTVRIKKLEEELKSTLFLRGKHQEIIPTEAAILFYPKAIAYLKKWEEDQAEVQKKSLAKHPFKIGVSHSAALSIMPGIFKVFEGELEHLDVEINMYDSEKVFELVANHDLHFGIIERLLISDQTETFPLFLDELVLAGNTDSETFFTRESGSGIGYYIKRYLKSAPSAQRNIVRMNSNEMIISHIKAGLGSSLISKSFLTDDIPYQELGSNYHREFLGVSFDEEKDPMIQKLISKIKKETEIH", "not soluble"],
  ["MITELTNIHLIKGNLQANSKNEVFAELAQMLLENNRISNKEDFLNDIEIRERLSVTSMDGIAYPHSKSKAVTKPAIAVGVKHEGIEYGDEEGIKPTVFFMIASPDNGADHHIYVLQELFGKFSEEFIEDIHNAKNEHQILNISIQS", "not soluble"],
  ["MGHHHHHHSHTKSARVKGLSFHPKRPWILTSLHNGVIQLWDYRMCTLIDKFDEHDGPVRGIDFHKQQPLFVSGGDDYKIKVWNYKLRRCLFTLLGHLDYIRTTFFHHEYPWILSASDDQTIRVWNWQSRTCVCVLTGHNHYVMCAQFHPTEDLVVSASLDQTVRVWDISGLRKKNLSPGAVESDVRGITGVDLFGTTDAVVKHVLEGHDRGVNWAAFHPTMPLIVSGADDRQVKIWRMNESKAWEVDTCRGHYNNVSCAVFHPRQELILSNSEDKSIRVWDMSKRTG", "soluble"],
  ["WKTTLKLTLDNVVKLEKLKPLVEDFYREFEFAELQINMEVFNGSWEAIAQGRADIVVGATSAVPVGGDFEVKDMGVLDWAFVMSPAHPCVRQQVLTEEFVSQFPAICLDDTSNVLPKRHTGHYAKQRRLLLPNWYSAIECLKNGVGVGYMPRHIAMPLIHEGVLVEKLLQDDKPLSRCCLVWRKDDDHKLIQWMVDYLGSPNQLHQDWLQC", "soluble"]
]}

Could you share which soluble on expression in E. coli value was measured for MGSDKIHHHHHHMALIITKKAADLPKPKKPVIGLALGSGAAKGWAHIGVLNGLAKLGIFPDKVAGCSVGALVGAAYANDNLDEIEKWVRGFSSWDVLGLMDIRWRKGGIINGEKVFEVLSSRVGALKIEQLKRAFAAVATDLYSGQEIWFREGDLRHAVRASCSMPGFLPPVQQDDRWLVDGAVVNPVPVSLCRAMGVDLVIAVDLNGHRRGQMMMLPEQVVSHQAEKSQTVTEKPQLESGFMDLWGKSKEYLSGLTEKFSLGVNSHPGMLAVMSQSMDILEQRHKRARLMGDPPDICIVPQVFDIGTMEFHRAAEAIAAGEQAVENISHLLKASIGDFDSAPQR ?
not soluble

Could you share which soluble on expression in E. coli value was measured for MSRPPPPRAASGAPLRPATVLGTMEMGRRMDASASAASVRAFLERGHSELDTAFMYCDGQSENILGGLGLGLGSGDCTVKIATKANPWEGKSLKPDSIRSQLETSLKRLQCPRVDLFYLHAPDHSTPVEETLCACHQLHQEGKFVELGLSNYASWEVAEICTLCKSNGWILPTVYQGMYNATTRQVEAELLPCLRHFGLRFYAYNPLAGGLLTGKYKYEDKDGKQPVGRFFGNNWAETYRNRFWKEHHFEAIALVEKALQTTYGTNAPRMTSAALRWMYHHSQLQGTRGDAVILGMSSLEQLEQNLAATEEGPLEPAVVEAFDQAWNMVAHECPNYFR ?
soluble

Could you share which soluble on expression in E. coli value was measured for SDRAMMNAFKEITTMADRINLPRNIVDRTNNLFKQVYEQKSLKGRANDAIASACLYIACRQEGVPRTFKEICAVSRISKKEIGRCFKLILKALETSVDLITTGDFMSRFCSNLCLPKQVQMAATHIARKAVELDLVPGRSPISVAAAAIYMASQASAEKRTQKEIGDIAGVADVTIRQSYRLIYPRAPDLFPTDFKFDTPVDKLPQL ?
soluble

Could you share which soluble on expression in E. coli value was measured for MGSDKIHHHHHHMMPNPLLDIRIGTMVRANLEDPAAYVRQILPLGFESIQPFFWQTLGGKDLPRLAGEIREAIGDADVVVSSLGVFGNPLESGEVDRGVLAAWETVIDNAHLFGASMVSGFTGRLRGKKLTDSLPRFREVWGPLAKRAADKGVRIAFENCAMDGNWAVGDWNIAHNPDAWELMFNELPDDNLGLEWEPCHQLVYLIDPIPQIRKWAPRIFHVHGKDATVRWDVIREHGVFGRLPFVQMRTPGFGDSDWTRVISELRLAGYKGAIDIEGWHDPVYRDDLEITGQARALEYLKQCRGGASYLQNPT ?
not soluble

Could you share which soluble on expression in E. coli value was measured for MKQLNGGNVYRPTGKEKNLQAILNIHRHVIQNISPVTITAGKTLDIKIDNQSHILLITKGAIKVCRRIDSIVMGCGVSPMILGLVDAYADLYQLEENSDVFFIAETTCEYYPVPVKDFVEIADEKHLWRDISNILMYRIAFMTNRDRNLIGQDAYSQIKALLLELWSYPESSRFEINAQNFIQQRTGLSRSRIMQVLSELKAGDYIKILHGRLLELRNLPVSF ?
not soluble

Could you share which soluble on expression in E. coli value was measured for GPGSMTYRYDYRPPNGGVEGSTVLFEPVAREHRATFSCGGGYGRNVMPEIPRPMVLPLVDYLDSFDKRFIEDWDEITTVQMVKLATLLNYEELLNLASAKLAVYLSEKSIEGLRAFLGVENDFKAEEEAELRKEYGRMSEEK ?
soluble

----------
assay: soluble on expression in E. coli; label from the status in PepcDB or PDB records

{"columns": ["residue string", "soluble on expression in E. coli"],
 "data": [
  ["MATDRENLLSDDYEETAAFCGCGYFRSFSFTRWRRGDDESRSRGGWSGCLQEERRGNWGSEKLKGLKEISEKIAGPKWKNFIRSFSSGRKKMRRDVDFTYDLKNYSLNFDDGGDGKDSSPERFVAPVVIKV", "not soluble"],
  ["MGSDKIHHHHHHMLINADFSCRAALAPEHYQWVQSPQNGVERVMLDRVGAEKARATSIVRYAPESNFPYHLHPGGEEILVLSGTFSADNSDYPAGWYLRNPPKSGHQPYSNVGAVIFVKLWQMTADETHHVAIDTKDAKNWHRQGNREVCHLFLDTSEQVSLQRIEAGEILFPETIARGAELLVIEGELIEDSMLDKGQSYKKGSWIRLPVDATSPIVAGANGATVYLKTGHLSRIIGIDVY", "not soluble"],
  ["VNPKQPDLGVHVHLVRNVCTVSLDSSGASLDRRGYRTEAGEAPLRETLAAALVEMTGWDGTVPLLDPMCGSGTILVEAALKALNRAPGLIRERFGFQHWPSFDSSLWLRLVTEARQGERTSLESPLLGSDQQADLLSVAAANARRAGVEQHISFTSGDVRGLTPPPAPGIILFNPPYGRRLGDEEGLRVLYRQIGDVLKQRCAGYTAWLLTGGPELAKAVGLRASRRIVLFNGPLECRFLRFDLY", "not soluble"]
]}

----------
experiment: soluble on expression in E. coli; label from the status in PepcDB or PDB records

{"columns": ["residue string", "soluble on expression in E. coli"],
 "data": [
  ["MHHHHHHSSGRENLYFQGESTRRLILVGRTGAGKSATGNSILGQRRFFSRLGATSVTRACTTGSRRWDKCHVEVVDTPDIFSSQVSKTDPGCEERGHCYLLSAPGPHALLLVTQLGRFTAQDQQAVRQVRDMFGEDVLKWMVIVFTRKEDLAGGSLHDYVSNTENRALRELVAECGGRVCAFDNRATGREQEAQVEQLLGMVEGLVLEHKGAHYSNEVYELAQVLRWAGPEERLRRVAERVAARVQR", "soluble"],
  ["MAFLGYGAAAALGGALVYANLPTYLTIGAVAPTFAHLAAAKLVPIRGGPKEKEVVERNEQFTADSLFKKGPIMVMAVRRPGCMLCRREAAELHTLLPLLKEKGIELAAVVHETRGANEFKSWFSGGDVYLDTDRTFYGPNERWLPVWMGFLRFGTYSNVYKAKKAKVEGNMEGEGRLLGGVYLIANNDIVFTHLEKEWGDAADIKEVRAAVEKFSEKSK", "not soluble"],
  ["AGTKLSLMPWFHGKITREQAERLLYPPETGLFLVRESTNYPGDYTLCVSSDGKVEHYRIMYHASKLSIDEEVYFENLMQLVEHYTSDADGLCTRLIKPKVMEGTVA", "soluble"],
  ["MAHHHHHHMSLSIHTNYGDIKIELFCYEVPKTCKNFLALCASGYYDNTKFHKNIKGFAIQGGDPTNTGKGGQSIYGKYFEDEFDSTLKHDKRGIVSMANKGKPNTNGSQFFITYSRQPHLNGIYPVFGKVIDGMDVLSVLENEPVGEKSRPIKDIIIETITIHANPIAEEESVDN", "not soluble"]
]}
